experiment: HUVEC growth inhibition – cell-based, human, primary screen (AID 575); conditions: HUVEC proliferation, CellTiter-Glo luminescence, 72 h; at 10 µM; hits give low values;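 also: 100% = median of untreated cell wells with 0.1% DMSO on each plate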
property: viability (%)

* O=S(=O)(NCc1cn2ccccc2n1)c1cc(F)ccc1F | 89.9
* Cc1c(CNCc2cccs2)c(C(=O)O)c(C)n1Cc1ccccc1 | 109
* CC(C)Cc1n[nH]c(=O)[nH]1 | 93.9
* OC(CN1CCN(c2ccccc2)CC1)c1ccc2c(c1)CCN2 (stereo unspecified) | 95.3
* Cc1ccc(C)c(N(CC(=O)NC2CCCC2)C(=O)CCCC(=O)Nc2ccccn2)c1 | 81.6
* CN(C)CCCN1c2ccccc2CCc2ccc(Cl)cc21 | 5.55
* CCOc1ccccc1N1C(=O)CC(Sc2ncccc2C(=O)O)C1=O (stereo unspecified) | 97
* C=CCn1c(N)c(C(=O)OC(C)(C)C)c2nc3ccccc3nc21 | 70.5
* CCOCCCn1c(=NC(C)=O)c(C(=O)OCC)cc2c(=O)n3ccccc3nc21 | 108
* Cc1ccc(N2CCN(CCc3nc4cc(NS(C)(=O)=O)ccc4n3C)CC2)cc1 | 110
* COc1cccc(C(=O)Nc2cnc(NC(=O)c3ccco3)cc2C)c1 | 103

###

assay: growth inhibitors of H69AR lung tumor, primary screen, human, duplicate replicates (AID 580); details: H69AR lung tumor cells viability, ATP luminescence, 72 h; at 10 µM; hits give low values;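 also: 100% = mean luminescence of untreated wells and 0% = no signal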
Collected viability values appear next to each entry.
property: viability (%)

• S=C(NCC1CCCO1)n1nnc2ccccc21 (centres undefined) = 74.8
• COC(=O)/C=c1\sc2ncnn2c1=O = 78.7
• O=C(NCc1ccco1)c1cccc(S(=O)(=O)N2CCCCC2)c1 = 90.9
• NC(=O)CSCc1ccc(Br)cc1 = 108
• O=C(Nc1cccc2ccccc12)N1CCN(c2ccccc2)CC1 = 94.4
• CCn1nccc1C(=O)Nc1nccs1 = 93.7
• CC(C)c1ccc(NC(=O)C2CC(=O)N(C(C)C)C2)cc1 (centres undefined) = 90.8
• C=CCn1c(=O)c2ccccc2n2c(SC(C)C(=O)Nc3nc(-c4ccccc4)cs3)nnc12 (centres undefined) = 79.6
• O=C(CN1C(=O)CCS(=O)(=O)c2ccccc21)NCc1ccc(F)cc1 = 98.4
• c1ccc(Cc2nn3c(Cn4cnc5ccccc54)nnc3s2)cc1 = 85.8
• COC(=O)c1c(C(=O)OC)n(CCCN)c2ccc(C)cc12 = 89.7
• CCCN(CCC)c1nc2ccccc2n2c(C)nnc12 = 81.1
• CCOC(=O)N1CCN(C(=O)CN(C)S(=O)(=O)c2ccc(OC)c(OC)c2)CC1 = 91.5
• CCOC(=O)c1[nH]c2ccc(C)cc2c1NC(=O)CN1CCCCC1 = 87.8
• O=C(CN1C(=O)CCS(=O)(=O)c2ccccc21)Nc1cccc(F)c1 = 106
• C1CCN=C(Nc2nc3c(s2)CCCC3)CC1 = 89.4
• CC(=O)Nc1cccc(NC(=O)CSc2nnnn2C(C)C)c1 = 99.2
• CCOc1ccc2[nH]c(O)c(NC(C)=O)c2c1 = 94.8
• CCCC1Cc2c(sc3ncnc(N)c23)CO1 (centres undefined) = 90.9
• CCC1CCCCN1S(=O)(=O)c1ccc(C(=O)Nc2nnc(-c3ccccc3Cl)o2)cc1 (centres undefined) = 20.1
• Cc1cc(NC(=O)CSc2nc(CCC3CCCC3)nc3ccccc23)no1 = 22.3
• CCOC(=O)c1sc(NC(=O)CSc2ncn(-c3ccccc3)n2)nc1C = 82.9
• Cc1cc(=O)oc2c(CN3CCN(C)CC3)c(O)c(Cl)cc12 = 90.7
• Cc1ccc(O)c(C(=O)c2cc(C#N)c(=O)n(CC3CCCO3)c2)c1 (centres undefined) = 89.7
